# Experimental target: CYP3A4 (Homo sapiens)
# Construct: human liver microsomes (0.25 mg/mL); from tissue; host or cells: human liver microsomes
# Sequence (P08684 whole entry): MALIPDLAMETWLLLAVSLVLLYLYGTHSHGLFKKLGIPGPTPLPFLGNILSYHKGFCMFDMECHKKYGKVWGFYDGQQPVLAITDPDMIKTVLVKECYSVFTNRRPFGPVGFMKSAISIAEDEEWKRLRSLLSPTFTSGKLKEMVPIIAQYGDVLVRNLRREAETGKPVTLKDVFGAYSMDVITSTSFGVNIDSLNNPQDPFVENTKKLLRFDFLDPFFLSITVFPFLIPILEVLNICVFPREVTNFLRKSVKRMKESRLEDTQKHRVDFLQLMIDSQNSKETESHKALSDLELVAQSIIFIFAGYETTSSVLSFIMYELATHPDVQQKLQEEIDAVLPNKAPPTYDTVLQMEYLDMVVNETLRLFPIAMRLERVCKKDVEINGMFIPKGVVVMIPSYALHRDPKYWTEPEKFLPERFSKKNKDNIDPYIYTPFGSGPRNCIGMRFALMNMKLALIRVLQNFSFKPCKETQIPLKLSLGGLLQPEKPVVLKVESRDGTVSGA
# Test: Inhibitory effect on CYP coenzyme activity, human liver microsomes
# Type: in vitro ADME
# Assay conditions: compound 10 μM; human liver microsomes 0.25 mg/mL; substrate midazolam; 15 minutes
Would you mind telling me the reported CYP3A4 of each entry?
Reply with the value as a number alone.

get_value(item= COc1cc(NN=C(C#N)C#N)ccc1OCc1cnccn1 , readout=CYP3A4) returns 82.1

Noted for Cc1cc(NN=C(C#N)C#N)ccc1OCc1nc2ccccc2[nH]1 : its CYP3A4 reads 82.7

# CYP3A4 of Cc1ccc(C(=O)Nc2ccc(NN=C(C#N)C#N)cn2)cc1 = 83.3

Kindly note the recorded CYP3A4 for Cc1cnc(C(=O)Nc2ccc(NN=C(C#N)C#N)cn2)cn1 , which is 85

CYP3A4 in this record for Cc1ccc(NC(=O)c2ccc(NN=C(C#N)C#N)cn2)cn1 : 92.4

----------
Please provide measured Human (%) for the entries that follow.
# Test: Liver microsome stability
# Format: in vitro ADME, human
# Assay conditions: amount of substrate remaining; compound 1 μM, 30 minutes, 37° C., NADPH
In your response, the unit should come after the numeric value.

So for N#CC(C#N)=NNc1ccc(NC(=O)c2ccc(C(F)(F)F)cc2)nc1 , the logged Human (%) turned out to be 86.9%

get_value(item= Cc1cnc(COc2ccc(NN=C(C#N)C#N)cc2C)cn1 , readout=Human (%)) returns 86.4%

The compound Cc1cnc(C(=O)Nc2ccc(NN=C(C#N)C#N)cn2)cn1 showed Human (%) equal to 86.5%

Noted for N#CC(C#N)=NNc1ccc(Oc2ccccc2)nc1 : its Human (%) reads 6.7%

Reported Human (%) of COc1cc(NN=C(C#N)C#N)ccc1OCc1nc2ccccc2[nH]1 : 86.9%

----------
# Experimental target: CYP2C9 (Homo sapiens, UniProt P11712)
# Construct: human liver microsomes (0.25 mg/mL); from tissue; host or cells: human liver microsomes
# Sequence (P11712 whole entry): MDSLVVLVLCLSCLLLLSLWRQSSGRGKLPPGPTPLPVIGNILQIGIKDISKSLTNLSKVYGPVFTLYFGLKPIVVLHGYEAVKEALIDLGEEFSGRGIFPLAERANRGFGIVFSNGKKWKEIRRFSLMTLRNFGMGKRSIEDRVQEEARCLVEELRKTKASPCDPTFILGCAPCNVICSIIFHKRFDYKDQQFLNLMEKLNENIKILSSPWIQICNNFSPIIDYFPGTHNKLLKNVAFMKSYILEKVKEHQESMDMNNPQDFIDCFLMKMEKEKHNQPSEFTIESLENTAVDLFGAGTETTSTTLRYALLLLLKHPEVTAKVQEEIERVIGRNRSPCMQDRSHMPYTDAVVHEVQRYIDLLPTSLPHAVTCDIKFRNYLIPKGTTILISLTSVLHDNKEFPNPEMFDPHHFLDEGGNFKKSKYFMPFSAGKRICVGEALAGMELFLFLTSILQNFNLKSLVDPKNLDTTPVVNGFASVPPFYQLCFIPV
# Test: Inhibitory effect on CYP coenzyme activity, human liver microsomes
# Type: in vitro ADME
# Assay conditions: compound 10 μM; human liver microsomes 0.25 mg/mL; substrate diclofenac; 15 minutes
# Experimental: The inhibitory effects of the compounds prepared according to Examples 1 to 175 on CYP coenzyme activity were identified. […] Metabolites of each CYP coenzyme indicator drug generated through the reaction were analyzed using the Shimadzu Nexera XR system and TSQ Vantage (Thermo). […] The generated metabolites were quantified using a multiple reaction monitoring (MRM) quantification mode, and Xcalibur (version 1.6.1) was used for data analysis. […]
Values of CYP2C9 greater than or equal to 60 map to Y; values below map to N.

Problem: Does the compound N#CC(C#N)=NNc1ccc(NC(=O)c2cccs2)nc1 [Compound 30] have recorded CYP2C9 that is 60 or more?
Solution: Y

Problem: Say whether COc1cc(NN=C(C#N)C#N)ccc1OCc1cccnc1 [Compound 160] shows CYP2C9 of 60 or more.
Solution: N

Problem: Dear colleague, could you confirm whether Cc1cnc(NC(=O)c2ccc(NN=C(C#N)C#N)cc2)cn1 [Compound 45] has CYP2C9 at or above 60?
Solution: Y

Problem: Check this compound for CYP2C9 at or above 60: Cc1ccc(C(=O)Nc2ccc(NN=C(C#N)C#N)cn2)cc1 [Compound 23]
Solution: N

Problem: Does the compound N#CC(C#N)=NNc1ccc(NC(=O)c2ccc(C(F)(F)F)cc2)nc1 [Compound 27] have recorded CYP2C9 that is 60 or more?
Solution: N

----------
# Experimental target: tau protein (Homo sapiens, UniProt P10636)
# Construct: fused on or other part: Split fluorescent-protein halves for BiFC are fused to tau; In the published tau-BiFC line these are Venus VN173 and VC155
# Sequence (P10636 2-441 isoform P10636-8 limits assumed): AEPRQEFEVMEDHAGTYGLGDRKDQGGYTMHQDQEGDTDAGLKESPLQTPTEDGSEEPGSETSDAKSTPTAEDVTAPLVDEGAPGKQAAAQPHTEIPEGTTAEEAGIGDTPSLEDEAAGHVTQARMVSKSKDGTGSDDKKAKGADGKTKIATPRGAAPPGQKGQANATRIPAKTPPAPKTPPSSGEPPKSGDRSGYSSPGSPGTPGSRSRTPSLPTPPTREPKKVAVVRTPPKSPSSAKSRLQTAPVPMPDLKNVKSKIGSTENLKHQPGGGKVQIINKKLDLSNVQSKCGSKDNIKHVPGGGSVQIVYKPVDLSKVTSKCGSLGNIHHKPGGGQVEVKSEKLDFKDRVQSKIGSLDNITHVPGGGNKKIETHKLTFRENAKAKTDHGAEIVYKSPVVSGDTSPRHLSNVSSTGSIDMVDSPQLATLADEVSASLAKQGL
# Test: Tau-BiFC cell model: inhibition of tau protein aggregation
# Assay conditions: Tau BiFC in cells; with Forskolin 30 μM, 48 hours
# Description: In order to select novel tau protein aggregation-inhibiting substances, tau-BiFC cell model, in which formation of tau oligomers in living cells is easily observed, was used. Tau-BiFC cells were aliquoted into a 384-well plate. […] After 48 hours, nuclei in the cells were stained using Hoechst (at a treatment concentration of 2 μg/mL), and BiFC fluorescence intensity was automatically measured using Operetta (PerkinElmer) to count stained nuclei in each well out of the entire well plate. […]
Kindly state pIC50 for each of the entries shown.
In simple prose, pIC50 is minus the logarithm base ten of a concentration in moles per litre.

Per the record, N#CC(C#N)=NNc1ccc(OCc2nc3ccccc3s2)cc1 has pIC50 of 6.70

Documented pIC50 of N#CC(C#N)=NNc1ccc(OCc2cccnc2)cc1 : 6.21

pIC50 in this record for Cc1ccc(COc2ccc(NN=C(C#N)C#N)cc2C)cc1 : 5.79

// Cc1cnc(NC(=O)c2ccc(NN=C(C#N)C#N)cc2)cn1 : pIC50 value = 5.93

// pIC50 lookup, compound = Cc1cnc(C(=O)Nc2ncc(NN=C(C#N)C#N)cc2C)cn1 , result: 6.19

pIC50 in this record for N#CC(C#N)=NNc1ccc(NC(=O)c2ncccn2)nc1 : 5.98

Lab note: measured pIC50 of N#CC(C#N)=NNc1ccc(Oc2ccc(C#N)cc2)cc1 was 5.91

Item: N#CC(C#N)=NNc1ccc(Oc2nccs2)cc1 | pIC50: 5.85

For record N#CC(C#N)=NNc1ccc(NC(=O)c2cocn2)nc1 the listed pIC50 is 6.70

Form: compound = COc1cc(NN=C(C#N)C#N)ccc1OCc1cscn1 ; pIC50 = 8.00

----------
# Experimental target: CYP2C19 (Homo sapiens)
# Construct: human liver microsomes (0.25 mg/mL); from tissue; host or cells: human liver microsomes
# Sequence (P33261 whole entry): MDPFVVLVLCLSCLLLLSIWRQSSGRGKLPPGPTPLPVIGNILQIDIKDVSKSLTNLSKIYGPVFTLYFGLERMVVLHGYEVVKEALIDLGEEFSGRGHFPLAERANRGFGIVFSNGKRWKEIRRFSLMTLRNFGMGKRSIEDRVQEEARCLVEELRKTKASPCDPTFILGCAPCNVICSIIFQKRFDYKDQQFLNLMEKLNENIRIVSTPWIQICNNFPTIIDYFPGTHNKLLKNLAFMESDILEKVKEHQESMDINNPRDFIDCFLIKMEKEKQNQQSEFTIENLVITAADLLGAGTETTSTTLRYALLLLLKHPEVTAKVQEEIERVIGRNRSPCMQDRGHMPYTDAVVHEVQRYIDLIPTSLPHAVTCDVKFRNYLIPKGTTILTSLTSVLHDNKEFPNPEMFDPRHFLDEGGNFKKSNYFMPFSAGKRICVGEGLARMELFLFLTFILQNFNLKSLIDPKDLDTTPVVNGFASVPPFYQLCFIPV
# Test: Inhibitory effect on CYP coenzyme activity, human liver microsomes
# Assay type: in vitro ADME
# Assay conditions: compound 10 μM; human liver microsomes 0.25 mg/mL; substrate S-mephenytoin; 15 minutes
Reported endpoint: CYP2C19
Respond with the number and no other words.

Per the reported CYP2C19 (Homo sapiens) data, N#CC(C#N)=NNc1ccc(OCc2cccnc2)cc1 has CYP2C19 of 69.9

CYP2C19 (Homo sapiens) CYP2C19 of Cc1cc(NN=C(C#N)C#N)ccc1OCc1nc2ccccc2[nH]1 is 88.4

Reported CYP2C19 (Homo sapiens) CYP2C19 for item Cc1cc(NN=C(C#N)C#N)ccc1OCc1cccnc1 was 46.5

Observed CYP2C19, CYP2C19 (Homo sapiens), Cc1cc(F)cc(C(=O)Nc2ccc(NN=C(C#N)C#N)cn2)c1 : 73.1

Simply: Cc1cnc(NC(=O)c2ccc(NN=C(C#N)C#N)cc2)cn1 , CYP2C19 (Homo sapiens), CYP2C19 = 83.4

# CYP2C19 measured on CYP2C19 (Homo sapiens) for item COc1cc(NN=C(C#N)C#N)ccc1OCc1cccnc1 = 68.5

CYP2C19 of COc1cc(NN=C(C#N)C#N)ccc1OCc1ccccc1 , assay on CYP2C19 (Homo sapiens), is 100

Record Cc1cc(NN=C(C#N)C#N)ccc1OCc1nc2ccccc2o1 has CYP2C19 (Homo sapiens) CYP2C19 equal to 83.7

Entry N#CC(C#N)=NNc1ccc(NC(=O)c2cccs2)nc1 ; assay system CYP2C19 (Homo sapiens); CYP2C19 recorded at 81.5

----------
Record form. Attribute: Cell viability (% @10 μM). Fill in for each entry.
# System: Tau-BiFC cells
# Test: Cell viability (cytotoxicity) in tau-BiFC cells, count of stained nuclei
# Type: cell-based
# Assay conditions: compound 10 μM; Forskolin-only group = 100% cell viability
# Description: In order to select novel tau protein aggregation-inhibiting substances, tau-BiFC cell model, in which formation of tau oligomers in living cells is easily observed, was used. Tau-BiFC cells were aliquoted into a 384-well plate. […] After 48 hours, nuclei in the cells were stained using Hoechst (at a treatment concentration of 2 μg/mL), and BiFC fluorescence intensity was automatically measured using Operetta (PerkinElmer) to count stained nuclei in each well out of the entire well plate. […]

The compound identified as COc1ccc(NC(=O)c2ccc(NN=C(C#N)C#N)cc2OC)cc1 registered its Cell viability (% @10 μM) at 141.8%

Reported Cell viability (% @10 μM) of COc1cc(C(=O)Nc2cnc(C)cn2)ccc1NN=C(C#N)C#N : 107.1%

The reported Cell viability (% @10 μM) of the compound N#CC(C#N)=NNc1ccc(Oc2ncccn2)cc1 was 117%

The compound identified as N#CC(C#N)=NNc1ccc(C(=O)Nc2ccc(Cl)cc2)nc1 registered its Cell viability (% @10 μM) at 117.8%

Query Cc1cncc(NC(=O)c2ccc(NN=C(C#N)C#N)cn2)c1 yields Cell viability (% @10 μM) of 131.1%

----------
Assignment: determine reported CYP2C9 for the given compounds.
# Experimental target: CYP2C9 (Homo sapiens)
# Construct: human liver microsomes (0.25 mg/mL); from tissue; host or cells: human liver microsomes
# Test: Inhibitory effect on CYP coenzyme activity, human liver microsomes
# Assay type: in vitro ADME
# Assay conditions: compound 10 μM; human liver microsomes 0.25 mg/mL; substrate diclofenac; 15 minutes
Respond numerically, and do not add a unit to the figure.

I looked up Cc1cccc(C(=O)Nc2ccc(NN=C(C#N)C#N)cn2)c1F and its CYP2C9 for CYP2C9 (Homo sapiens) was 22.3

Fill in: CYP2C9 (Homo sapiens) CYP2C9 for Cc1cncc(NC(=O)c2ccc(NN=C(C#N)C#N)cc2)n1 = 70.4

The compound Cc1cc(NN=C(C#N)C#N)ccc1OCc1cnccn1 , when measured on CYP2C9 (Homo sapiens), yielded CYP2C9 of 24.5

Reported CYP2C9 (Homo sapiens) CYP2C9 for item COc1cc(NN=C(C#N)C#N)ccc1C(=O)Nc1cnc(C)cn1 was 48.6

I looked up COc1cc(NN=C(C#N)C#N)ccc1OCc1ccccc1 and its CYP2C9 for CYP2C9 (Homo sapiens) was 44.1

Per the reported CYP2C9 (Homo sapiens) data, COc1cc(NN=C(C#N)C#N)ccc1OCc1ccc(C)cc1 has CYP2C9 of 26.6

GET /values?item= Cc1cnc(C(=O)Nc2ccc(NN=C(C#N)C#N)c(C)c2)cn1 &system= CYP2C9 (Homo sapiens) returns CYP2C9: 38

The reported CYP2C9 (Homo sapiens) CYP2C9 of Cc1cc(F)cc(C(=O)Nc2ccc(NN=C(C#N)C#N)cn2)c1 is 14.6

I looked up COc1cc(NN=C(C#N)C#N)ccc1OCc1cnccn1 and its CYP2C9 for CYP2C9 (Homo sapiens) was 54.7

The recorded CYP2C9 with CYP2C9 (Homo sapiens) for CC(Oc1ccc(NN=C(C#N)C#N)cc1)c1cccnc1 (stereo not shown) was 11.7
